# test-target: Angiotensin-converting enzyme (Oryctolagus cuniculus, UniProt P12822)
# Sequence (P12822 whole entry): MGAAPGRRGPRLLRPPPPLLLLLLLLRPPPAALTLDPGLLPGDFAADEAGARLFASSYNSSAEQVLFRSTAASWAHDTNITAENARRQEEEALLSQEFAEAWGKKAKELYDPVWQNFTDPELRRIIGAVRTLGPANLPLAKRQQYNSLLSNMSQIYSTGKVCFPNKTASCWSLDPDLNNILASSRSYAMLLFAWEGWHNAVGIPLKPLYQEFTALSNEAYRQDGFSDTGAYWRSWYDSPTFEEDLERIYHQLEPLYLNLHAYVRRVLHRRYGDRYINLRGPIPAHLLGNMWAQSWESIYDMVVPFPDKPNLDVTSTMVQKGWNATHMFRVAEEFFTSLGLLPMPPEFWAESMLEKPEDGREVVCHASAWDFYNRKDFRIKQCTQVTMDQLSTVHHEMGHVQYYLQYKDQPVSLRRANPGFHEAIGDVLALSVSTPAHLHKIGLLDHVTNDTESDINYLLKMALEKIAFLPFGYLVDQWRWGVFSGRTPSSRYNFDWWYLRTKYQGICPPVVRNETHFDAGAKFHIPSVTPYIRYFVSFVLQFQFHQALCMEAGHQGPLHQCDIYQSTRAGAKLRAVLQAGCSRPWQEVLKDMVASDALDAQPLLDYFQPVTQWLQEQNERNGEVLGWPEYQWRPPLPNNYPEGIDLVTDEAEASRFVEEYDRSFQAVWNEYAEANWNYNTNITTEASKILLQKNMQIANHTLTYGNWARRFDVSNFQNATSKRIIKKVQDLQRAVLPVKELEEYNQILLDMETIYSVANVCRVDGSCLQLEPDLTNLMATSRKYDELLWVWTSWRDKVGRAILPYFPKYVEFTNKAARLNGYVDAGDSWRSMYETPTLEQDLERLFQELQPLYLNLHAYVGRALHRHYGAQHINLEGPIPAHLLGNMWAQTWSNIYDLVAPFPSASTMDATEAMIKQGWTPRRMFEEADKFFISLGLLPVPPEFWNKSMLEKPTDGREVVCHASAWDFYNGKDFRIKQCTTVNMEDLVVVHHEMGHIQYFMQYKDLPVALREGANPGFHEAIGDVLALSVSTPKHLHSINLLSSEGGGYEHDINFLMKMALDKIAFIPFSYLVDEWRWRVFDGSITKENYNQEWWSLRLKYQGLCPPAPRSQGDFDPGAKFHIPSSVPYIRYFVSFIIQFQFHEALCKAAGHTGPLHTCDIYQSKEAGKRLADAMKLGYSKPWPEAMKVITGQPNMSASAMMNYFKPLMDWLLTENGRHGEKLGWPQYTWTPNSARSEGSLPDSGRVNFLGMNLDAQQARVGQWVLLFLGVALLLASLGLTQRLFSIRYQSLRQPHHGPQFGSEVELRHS
# assay-summary: Inhibition of the activity of rabbit lung Angiotensin I converting enzyme
quantity-name: IC50 (nM)

>>> print(df.to_string())
                                   compound  quantity_name  unit  measured_result
0    CC(=O)S[C@@H](C)C(=O)N1CSC[C@H]1C(=O)O           IC50    nM             1700
1  CC(=O)SC(C)C(=O)N(CC(=O)O)C1CCCC1 (stereo not drawn)           IC50    nM              510
2  CC(S)C(=O)N(CC(=O)O)C1CCCC1 (stereo not drawn)           IC50    nM               57
